meta.source: the supplement of paper PMC8671470

- System: KU-812
- experimentalProtocol: cell viability (% survival relative to DMSO control, bortezomib = 0%); higher = less cytotoxic
- statedConditions: 10 nM; 72 h
experimentalEndpoint: cell viability (%)
Answer format: numeric, % implied, no suffix.

Guide cases for cell viability, answers given:
molecule: CN1CCN(CCCN2c3ccccc3Sc3ccc(C(F)(F)F)cc32)CC1 [Trifluoperazine]
measurement: 94
--
molecule: Cc1cc2c(C(C)C)c(O)c(O)c(C=O)c2c(O)c1-c1c(C)cc2c(C(C)C)c(O)c(O)c(C=O)c2c1O [Gossypol]
measurement: 94.2

Switching to the query record.
Form: molecule = O=C(NCCN1CCC(n2c(O)nc3ccccc32)CC1)c1cc2cc(F)ccc2[nH]1 [FIPI] ; cell viability = 92.9

----------
- System: MV4-11
- experimentalProtocol: cell viability (% survival relative to DMSO control, bortezomib = 0%); higher = less cytotoxic
- statedConditions: 1 nM; 72 h
experimentalEndpoint: cell viability (%)
Express the result in % but write the number alone.

The value of cell viability recorded for O=C(NCCN1CCC(n2c(O)nc3ccccc32)CC1)c1cc2cc(F)ccc2[nH]1 when tested on MV4-11 reads 91.3

Reading of cell viability for OC[C@H]1O[C@@H](n2cnc3c2N=CNC[C@H]3O)C[C@@H]1O with MV4-11: 95.8

Summary line: C[C@H]1c2cccc(O)c2C(=O)C2C(=O)[C@]3(O)C(=O)C(C(N)=O)C(=O)[C@@H](N(C)C)[C@@H]3[C@@H](O)[C@@H]21 (stereo partly drawn) , MV4-11, reported cell viability = 110

Entry CCOC(=O)c1sc(NC(=O)c2ccco2)c(SC#N)c1C , tested on MV4-11, has a reported cell viability of 79.9

Considering N#C/C(=C\c1ccc(O)cc1)C(=O)O [alpha-cyano-4-hydroxycinnamic acid] , its cell viability with MV4-11 was recorded as 100

Considering C=CC(=O)c1ccc(O)cc1 , its cell viability with MV4-11 was recorded as 91

Item CC/C=C\C[C@H]1C(=O)CC[C@@H]1CC(=O)OC [Methyl jasmonate] was tested on MV4-11; the reported cell viability is 106

Record Cc1c2c(=O)n(-c3ccccc3Cl)[nH]c2cc(=O)n1Cc1ccccn1 ; system MV4-11; cell viability = 101

----------
- Tested on: MV4-11
- experimentalProtocol: cell viability (% survival relative to DMSO control, bortezomib = 0%); higher = less cytotoxic
- statedConditions: 1 nM; 72 h
Listed here are compounds together with their documented cell viability.
Give your result in % as a bare value.

Illustrative cases are given below, each with its answer.
compound: CCc1oc2ccccc2c1C(=O)c1cc(Br)c(O)c(Br)c1
experimentalEndpoint: cell viability
unitSpec: %
measurement: 107
--
compound: O=c1c(-c2ccc(O)cc2)coc2cc(O[C@@H]3O[C@H](CO)[C@@H](O)[C@H](O)[C@H]3O)ccc12
experimentalEndpoint: cell viability
unitSpec: %
measurement: 91.6
--
compound: CN(CCOc1ccc(Cc2sc(O)nc2O)cc1)c1ccccn1
experimentalEndpoint: cell viability
unitSpec: %
measurement: 107

Fill in: MV4-11 cell viability for CC(C)(C)c1ccc(S(=O)(=O)NCc2ccc(C(=O)Nc3cccnc3)cc2)cc1 = 98

Per the reported MV4-11 data, Cc1cc2c(C(C)C)c(O)c(O)c(C=O)c2c(O)c1-c1c(C)cc2c(C(C)C)c(O)c(O)c(C=O)c2c1O has cell viability of 97.7

Item O=C(O)CC[N+](=O)[O-] was tested on MV4-11; the reported cell viability is 105

Fill in: MV4-11 cell viability for Cc1nc(-c2ccccc2)sc1C(=O)Nc1ccc(S(N)(=O)=O)cc1 = 106

Entry O=C([O-])CC(O)(C(=O)[O-])C(O)C(=O)[O-].[K+].[K+].[K+] (stereo not drawn) [Hydroxycitrate] ; assay system MV4-11; cell viability recorded at 81.4

----------
Examples of compounds with documented cell viability follow.
- System: myeloid leukemia patient primary cells Pat.6
- experimentalProtocol: cell viability (% survival relative to DMSO control); higher = less cytotoxic
- statedConditions: 1 nM; 72 h
# number only, unit % dropped from output

Some entries whose results are on file:
compound: CN(CCOc1ccc(Cc2sc(O)nc2O)cc1)c1ccccn1
unitSpec: %
measurement: 89.5
//
compound: CO[C@H]1C[C@@H]2CC[C@@H](C)[C@@](O)(O2)C(=O)C(=O)N2CCCC[C@H]2C(=O)O[C@H]([C@H](C)C[C@@H]2CC[C@@H](OC(=O)C(C)(CO)CO)[C@H](OC)C2)CC(=O)[C@H](C)/C=C(\C)[C@@H](O)[C@@H](OC)C(=O)[C@H](C)C[C@H](C)/C=C/C=C/C=C/1C
unitSpec: %
measurement: 99.3

Lab book: cell viability of C=CCN(C)CCCCCCOc1ccc(C(=O)c2ccc(Br)cc2)c(F)c1.O=C(O)/C=C/C(=O)O [Ro 48-8071 fumarate] noted as 99.9

get_value(item= Cn1cc(-c2ccncc2)c(-c2ccc(OCc3ccc4ccccc4n3)cc2)n1 , readout=cell viability) returns 94.1

Recorded result, O=c1cc(N2CCOCC2)oc2c(-c3ccccc3)cccc12 , cell viability: 91.8

----------
- Tested on: HL-60
- statedConditions: 72 h
Measured IC50 (cell viability) of individual entries
Respond with the bare value in µM.

molecule: CCn1c(=Cc2cccc[n+]2CC)sc(=C2Sc3ccccc3N2C)c1=O [MKT 077]
IC50 (cell viability) [µM]: 4.45

Let us examine a further case.
Item: CN1CCN(CCCN2c3ccccc3Sc3ccc(C(F)(F)F)cc32)CC1 [Trifluoperazine] | IC50 (cell viability): 5.18

----------
- System: HL-60
- experimentalProtocol: cell viability (% survival relative to DMSO control); higher = less cytotoxic
- statedConditions: 0.1 µM; 72 h; co-treatment: pictilisib 100 nM
experimentalEndpoint: cell viability (%)
Only the number, expressed in %, is required.

Consider the worked cases shown below.
molecule: Cc1c(Cl)cccc1S(=O)(=O)Nc1nc(CC(=O)N2CCN(C)CC2)cs1
experimentalEndpoint: cell viability
measurement: 96.6
--
molecule: COC(=O)c1cc2c(C(F)(F)F)cc(-c3ccccc3)cc2n1O
experimentalEndpoint: cell viability
measurement: 103
--
molecule: N#Cc1ccc(N(Cc2ccc(Br)cc2)n2cnnc2)cc1
experimentalEndpoint: cell viability
measurement: 99.6
--
molecule: CN1CCN(CCCN2c3ccccc3Sc3ccc(C(F)(F)F)cc32)CC1
experimentalEndpoint: cell viability
measurement: 108
--
molecule: N#C/C(=C\c1ccc(O)cc1)C(=O)O [alpha-cyano-4-hydroxycinnamic acid]
experimentalEndpoint: cell viability
measurement: 95.5
--
molecule: c1cc(-c2cnn3cc(-c4ccc(OCCN5CCCCC5)cc4)cnc23)ccn1
experimentalEndpoint: cell viability
measurement: 94.8
--
molecule: Cc1cc2c(C(C)C)c(O)c(O)c(C=O)c2c(O)c1-c1c(C)cc2c(C(C)C)c(O)c(O)c(C=O)c2c1O
experimentalEndpoint: cell viability
measurement: 94
--
molecule: O=c1cc(N2CCOCC2)oc2c(-c3ccccc3)cccc12
experimentalEndpoint: cell viability
measurement: 103

Next, consider the following molecule.
// field: cell viability; key: Cc1cccc(Nc2cc(Cl)nc(SCC(=O)O)n2)c1C ; value = 91.1

----------
In this section, each of the molecules is paired with its reported cell viability.
- System: MOLM-13
- experimentalProtocol: cell viability (% survival relative to DMSO control, bortezomib = 0%); higher = less cytotoxic
- statedConditions: 100 nM; 72 h
Enter your answer as a number in %; do not include the unit.

Worked cases, answers included:
mol: CCOC(=O)c1sc(NC(=O)c2ccco2)c(SC#N)c1C
cell viability / %: 112

mol: O=C(NCCN1CCC(n2c(O)nc3ccccc32)CC1)c1cc2cc(F)ccc2[nH]1
cell viability / %: 98.9

mol: O=c1c(-c2ccc(O)cc2)coc2cc(O[C@@H]3O[C@H](CO)[C@@H](O)[C@H](O)[C@H]3O)ccc12
cell viability / %: 105

mol: CO[C@H]1C[C@@H]2CC[C@@H](C)[C@@](O)(O2)C(=O)C(=O)N2CCCC[C@H]2C(=O)O[C@H]([C@H](C)C[C@@H]2CC[C@@H](OCCO)[C@H](OC)C2)CC(=O)[C@H](C)/C=C(\C)[C@@H](O)[C@@H](OC)C(=O)[C@H](C)C[C@H](C)/C=C/C=C/C=C/1C
cell viability / %: 48.3

mol: OC[C@H]1NC[C@H](O)[C@@H](O)[C@@H]1O
cell viability / %: 104

mol: O=C1C(SCCO)=C(SCCO)C(=O)c2ccccc21
cell viability / %: 107

Now consider a different molecule.
Item: O=C(Nc1ccccc1)c1cc([N+](=O)[O-])ccc1Cl | cell viability: 95.5

----------
- Test system: KG-1
- experimentalProtocol: cell viability (% survival relative to DMSO control, bortezomib = 0%); higher = less cytotoxic
- statedConditions: 1 nM; 72 h
Counter-ions that a name gives are not always drawn.
experimentalEndpoint: cell viability (%)
Enter your answer as a number in %; do not include the unit.

Past entries and their recorded results:
compound: CCCc1nc(C)c2c(=O)nc(-c3cc(S(=O)(=O)N4CCN(CC)CC4)ccc3OCC)[nH]n12
cell viability / %: 95.4

compound: CCN(CCO)CCCC(C)Nc1ccnc2cc(Cl)ccc12 (stereo unspecified) [Hydroxychloroquine sulfate]
cell viability / %: 95.1

compound: C[C@H]1c2cccc(O)c2C(=O)C2C(=O)[C@]3(O)C(=O)C(C(N)=O)C(=O)[C@@H](N(C)C)[C@@H]3[C@@H](O)[C@@H]21 (stereo partly specified)
cell viability / %: 106

compound: Cc1ccc(-c2cc(C(F)(F)F)nn2-c2ccc(S(N)(=O)=O)cc2)cc1
cell viability / %: 96.8

compound: CO[C@H]1C[C@@H]2CC[C@@H](C)[C@@](O)(O2)C(=O)C(=O)N2CCCC[C@H]2C(=O)O[C@H]([C@H](C)C[C@@H]2CC[C@@H](OCCO)[C@H](OC)C2)CC(=O)[C@H](C)/C=C(\C)[C@@H](O)[C@@H](OC)C(=O)[C@H](C)C[C@H](C)/C=C/C=C/C=C/1C
cell viability / %: 54.3

Okay, next one:
cell viability reading for Cc1nc(-c2ccccc2)sc1C(=O)Nc1ccc(S(N)(=O)=O)cc1 : 118
